# experimental-target: T1, human BR3 extracellular domain (human, UniProt Q96RJ3 1-61)
# T1 construct: biotinylated where used as tracer; also called hBR3-ECD; BR3-ECD
# test-description: SPR, IgG on chip, BR3 ECD in solution
experimental-endpoint: kon (M⁻¹ s⁻¹)
Just the number in M⁻¹ s⁻¹, nothing appended.

Take a look at these entries with their results.
{"columns": ["binder", "experimental-result"],
 "data": [
  ["Hu2.1-30 IgG (antibody, V domains shown, humanized IgG; also called h2.1-30) VH: EVQLVESGGGLVQPGGSLRLSCAASGDSITRGYWNWVRQAPGKGLEWVGYINYSGTTYYNPSLKSRFTISRDTSKNTFYLQMNSLRAEDTAVYYCANLNYYGAMDYWGQGTLVTVSS VL: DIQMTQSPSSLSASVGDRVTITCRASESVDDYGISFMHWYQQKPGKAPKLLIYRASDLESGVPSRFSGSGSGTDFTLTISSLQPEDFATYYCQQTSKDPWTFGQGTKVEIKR", "3.57e+06"],
  ["V3-1m (antibody, mouse IgG2a, V domains shown, also called mV3-1; V3-1 (IgG)) VH: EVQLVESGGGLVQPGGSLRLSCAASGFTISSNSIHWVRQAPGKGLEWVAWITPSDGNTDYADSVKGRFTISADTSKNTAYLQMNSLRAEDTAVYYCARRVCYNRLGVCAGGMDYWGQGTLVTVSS VL: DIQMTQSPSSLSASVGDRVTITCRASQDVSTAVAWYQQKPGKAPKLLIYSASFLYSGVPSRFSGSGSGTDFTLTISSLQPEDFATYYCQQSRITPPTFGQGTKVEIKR", 267000],
  ["Hu9.1-88 IgG (antibody, V domains shown, humanized IgG; also called h9.1-88) VH: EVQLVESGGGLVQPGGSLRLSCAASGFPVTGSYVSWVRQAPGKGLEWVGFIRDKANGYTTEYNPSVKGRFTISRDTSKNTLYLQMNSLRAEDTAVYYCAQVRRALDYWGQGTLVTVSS VL: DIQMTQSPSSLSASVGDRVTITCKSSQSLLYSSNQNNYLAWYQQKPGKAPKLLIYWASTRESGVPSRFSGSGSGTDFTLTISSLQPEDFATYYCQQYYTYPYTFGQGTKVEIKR", "1.02e+06"],
  ["murine monoclonal antibody 2.1 (antibody, V domains shown, mouse hybridoma IgG; also called 2.1 IgG; mu2.1) VH: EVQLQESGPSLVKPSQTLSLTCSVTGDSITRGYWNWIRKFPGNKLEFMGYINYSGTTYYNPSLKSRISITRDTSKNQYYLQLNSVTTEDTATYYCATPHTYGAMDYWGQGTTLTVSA VL: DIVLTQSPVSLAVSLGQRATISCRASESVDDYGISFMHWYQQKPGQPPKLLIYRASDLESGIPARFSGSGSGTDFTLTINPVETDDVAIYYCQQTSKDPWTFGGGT", 110000],
  ["Hu2.1-46 IgG (antibody, V domains shown, humanized IgG; also called h2.1-46) VH: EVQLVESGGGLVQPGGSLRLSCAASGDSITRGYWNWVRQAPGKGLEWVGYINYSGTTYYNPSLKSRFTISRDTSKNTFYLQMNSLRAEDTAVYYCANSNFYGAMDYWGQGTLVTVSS VL: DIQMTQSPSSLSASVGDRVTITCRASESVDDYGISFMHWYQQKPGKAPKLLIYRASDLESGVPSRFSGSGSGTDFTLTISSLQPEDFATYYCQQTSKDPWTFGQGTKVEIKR", "2.24e+06"],
  ["mV3-46 IgG (antibody, V domains shown, IgG on chip) VH: EVQLVESGGGLVQPGGSLRLSCAASGFTISNSSIHWVRQAPGKGLEWVAWVLPSVGFTDYADSVKGRFTISADTSKNTAYLQMNSLRAEDTAVYYCARRVCYNRLGVCAGGMDYWGQGTLVTVSS VL: DIQMTQSPSSLSASVGDRVTITCRASQDVSTAVAWYQQKPGKAPKLLIYSASFLYSGVPSRFSGSGSGTDFTLTISSLQPEDFATYYCQQSQISPPTFGQGTKVEIKR", 300000]
]}

As a next step, examine the binder that follows.
IN: For mV3-46s IgG (antibody, V domains shown, IgG on chip) VH: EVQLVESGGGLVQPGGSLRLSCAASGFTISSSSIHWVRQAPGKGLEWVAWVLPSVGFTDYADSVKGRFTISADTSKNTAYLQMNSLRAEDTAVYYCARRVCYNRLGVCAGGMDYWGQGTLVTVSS VL: DIQMTQSPSSLSASVGDRVTITCRASQDVSTAVAWYQQKPGKAPKLLIYSASFLYSGVPSRFSGSGSGTDFTLTISSLQPEDFATYYCQQSQISPPTFGQGTKVEIKR , what is its reported kon?
OUT: 1.57e+06
